// provenance: ChEMBL document CHEMBL3872263

assay: Inhibition of Escherichia coli His6-tagged DXR preincubated for 2 mins in presence of NADPH followed by DXP substrate addition
pIC50: −log10 of the molar value.
Decide by pIC50: equal to or exceeding 7 means True, less means False.

hey, is pIC50 for this one >= 7? CC(=O)N(O)CCCP(=O)(O)O True

hey, is pIC50 for this one >= 7? O=CN(O)CCOP(=O)(O)O False

hey, is pIC50 for this one >= 7? O=C(CCOP(=O)(O)O)NO False

hey, is pIC50 for this one >= 7? O=CN(O)CCCP(=O)(O)O True

hey, is pIC50 for this one >= 7? CN(O)C(=O)CCCP(=O)(O)O True

hey, is pIC50 for this one >= 7? O=C(CCCP(=O)(O)O)NO False

hey, is pIC50 for this one >= 7? CN(O)C(=O)CCOP(=O)(O)O True
